target: PIK3CA (bovine)
pIC50: −log10 of the molar value.
Label Criterion met when pIC50 is at or above 6; anything below gets Criterion not met.

- Oc1ccc2nc(-c3ccccc3O)nc(N3CCOCC3)c2c1: Criterion not met
- Oc1ccc2c(N3CCOCC3)nc(-c3ccccc3)nc2c1: Criterion not met
- Oc1cccc(-c2nc(N3CCOCC3)c3cnccc3n2)c1: Criterion met
- Nc1ccccc1-c1nc(N2CCOCC2)c2cc(O)ccc2n1: Criterion not met
- c1ccc(-c2nc(N3CCOCC3)c3ccccc3n2)cc1: Criterion not met
- O=C1CCN(c2nc(-c3ccccc3)nc3ccc(O)cc23)CC1: Criterion not met
- Oc1cccc(-c2nc(N3CCOCC3)c3ccncc3n2)c1: Criterion met
- COc1ccc2nc(-c3ccccc3)nc(N3CCOCC3)c2c1: Criterion not met
- Oc1ccc2nc(-c3ccccc3)nc(N3CCCCC3)c2c1: Criterion not met
- OCc1cccc(-c2nc(N3CCOCC3)c3cc(O)ccc3n2)c1: Criterion met

====

target: CDK2 (UniProt P24941)
assay_readout: IC50

• Oc1cccc(-c2nc(N3CCOCC3)c3sccc3n2)c1 = 28 µM
